system: Pasteurella multocida PM 12080 (IV102277-0093, BRD field isolate); assay: MIC, broth-microdilution (CLSI VET01-A4); format: cell-based; conditions: Pasteurella multocida PM 12080; read-out: MIC PM 12080
property-name: MIC

Sample records with MIC:
C[C@@H](O)[C@H](NC(=O)c1ccc(C#Cc2ccc(CN3CCc4ccccc4C3)o2)cc1)C(=O)NO
0.2 µM
CC(C)C(NC(=O)c1ccc(C#Cc2ccc(CNCc3ccccn3)cc2)cc1)C(=O)NO (stereo not shown)
0.4 µM
CC(C)(N)C(NC(=O)c1ccc(C#Cc2ccc(CNCc3ccccc3)cc2)cc1)C(=O)NO (racemic)
0.2 µM
CSC(C)(C)[C@H](NC(=O)c1ccc(C#Cc2ccc(CNCC#N)cc2)cc1)C(=O)NO
0.2 µM
C[C@@H](O)[C@H](NC(=O)c1ccc(C#Cc2ccc(CNCc3ccncc3)s2)cc1)C(=O)NO
0.2 µM
CSC(C)(C)C(NC(=O)c1ccc(C#Cc2ccc(CNCc3ccccc3)cc2)cc1)C(=O)NO (stereo not shown)
0.4 µM

Field: next compound
GET /values?item= `CSC(C)(C)[C@H](NC(=O)c1ccc(C#Cc2ccc(CNCc3ccccn3)cc2)cc1)C(=O)NO` &system= Pasteurella multocida PM 12080 (IV102277-0093, BRD field isolate) returns MIC: 0.4 µM

====

tested on: Mannheimia haemolytica MH 6374 (ATCC 33396, reference strain); assay: MIC, broth-microdilution (CLSI VET01-A4); format: cell-based; details: strain MH 6374
property-name: MIC (µg/mL)
Hi! Could you send only the number? It should be in µg/mL, unit omitted.

Sample records with MIC:
C[C@@H](O)[C@H](NC(=O)c1ccc(C#Cc2ccc(CNCC(F)(F)F)cc2)cc1)C(=O)NO [C. 467]
0.063
CCCNCc1ccc(C#Cc2ccc(C(=O)N[C@H](C(=O)NO)[C@@H](C)O)cc2)cc1 [C. 251]
8
CC(C)(N)C(NC(=O)c1ccc(C#Cc2ccc(CNC3CC3)cc2)cc1)C(=O)NO (stereo not drawn) [C. 329]
0.25
CC(C)(N)C(NC(=O)c1ccc(C#Cc2ccc(CNCc3ccncc3)cc2)cc1)C(=O)NO (stereo not drawn) [C. 320]
0.25
COCCNCc1ccc(C#Cc2ccc(C(=O)N[C@H](C(=O)NO)[C@@H](C)O)cc2)s1 [C. 189]
0.25

Field: next compound
Looking up COCCNCc1ccc(C#Cc2ccc(C(=O)N[C@H](C(=O)NO)[C@@H](C)O)cc2)cc1 [C. 231] , I see its MIC listed as 0.25

====

system: Mannheimia haemolytica MH 10720 (154, BRD field isolate); experiment: MIC, broth-microdilution (CLSI VET01-A4); assay type: cell-based; details: Mannheimia haemolytica MH 10720; read-out: MIC MH 10720
Recorded MIC for the following molecules
Hi! Could you send only the number? It should be in µM, unit omitted.

CC(C)(N)C(NC(=O)c1ccc(C#Cc2ccc(CNCc3ccncc3)s2)cc1)C(=O)NO (stereo not shown)
0.2
CSC(C)(C)[C@H](NC(=O)c1ccc(C#Cc2ccc(CNCc3ccncc3)s2)cc1)C(=O)NO
0.2
COc1ccc(CNCc2ccc(C#Cc3ccc(C(=O)NC(C(=O)NO)C(C)(C)N)cc3)cc2)cc1 (stereo not shown)
0.2
C[C@@H](O)[C@H](NC(=O)c1ccc(C#Cc2ccc(CNC3CC3)cc2)cc1)C(=O)NO
0.2

GET /values?item= `C[C@@H](O)[C@H](NC(=O)c1ccc(C#Cc2ccc(CN3CCOCC3)s2)cc1)C(=O)NO` &system= Mannheimia haemolytica MH 10720 (154, BRD field isolate) returns MIC: 0.2

GET /values?item= CC(C)(N)C(NC(=O)c1ccc(C#Cc2ccc(CNCc3ccncc3)cc2)cc1)C(=O)NO (stereo not shown) &system= Mannheimia haemolytica MH 10720 (154, BRD field isolate) returns MIC: 0.4

GET /values?item= CC(C)(N)C(NC(=O)c1ccc(C#Cc2ccc(N)cc2)cc1)C(=O)NO (stereo not shown) &system= Mannheimia haemolytica MH 10720 (154, BRD field isolate) returns MIC: 0.2

GET /values?item= CC(C)(N)C(NC(=O)c1ccc(C#Cc2ccc(CNCc3ccccc3)s2)cc1)C(=O)NO (stereo not shown) &system= Mannheimia haemolytica MH 10720 (154, BRD field isolate) returns MIC: 0.2

GET /values?item= Cc1ccc(CNCc2ccc(C#Cc3ccc(C(=O)NC(C(=O)NO)C(C)C)cc3)cc2)cc1 (stereo not shown) &system= Mannheimia haemolytica MH 10720 (154, BRD field isolate) returns MIC: 0.4

GET /values?item= CCC(C)C(NC(=O)c1ccc(C#Cc2ccc(CNCc3cccs3)cc2)cc1)C(=O)NO (stereo not shown) &system= Mannheimia haemolytica MH 10720 (154, BRD field isolate) returns MIC: 0.2

GET /values?item= COCCNCc1ccc(C#Cc2ccc(C(=O)NC(C(=O)NO)C(C)(C)N)cc2)s1 (stereo not shown) &system= Mannheimia haemolytica MH 10720 (154, BRD field isolate) returns MIC: 0.4

GET /values?item= CC(C)(N)C(NC(=O)c1ccc(C#Cc2ccc(CNCc3ccnc(Cl)c3)s2)cc1)C(=O)NO (stereo not shown) &system= Mannheimia haemolytica MH 10720 (154, BRD field isolate) returns MIC: 0.2

GET /values?item= CC(C)C(NC(=O)c1ccc(C#Cc2ccc(CNCc3ccnc(Cl)c3)cc2)cc1)C(=O)NO (stereo not shown) &system= Mannheimia haemolytica MH 10720 (154, BRD field isolate) returns MIC: 0.2

GET /values?item= `CSC(C)(C)[C@H](NC(=O)c1ccc(C#Cc2ccc(CNCc3nccs3)cc2)cc1)C(=O)NO` &system= Mannheimia haemolytica MH 10720 (154, BRD field isolate) returns MIC: 0.2

GET /values?item= CC(C)(N)C(NC(=O)c1ccc(C#Cc2ccc(CNCc3cccs3)nc2)cc1)C(=O)NO (racemic) &system= Mannheimia haemolytica MH 10720 (154, BRD field isolate) returns MIC: 0.4

GET /values?item= CC(C)(N)C(NC(=O)c1ccc(C#Cc2ccc(CNCc3ccccc3)cc2)cc1)C(=O)NO (racemic) &system= Mannheimia haemolytica MH 10720 (154, BRD field isolate) returns MIC: 0.4

====

Test system: Pasteurella multocida PM 12080 (IV102277-0093, BRD field isolate)
Assay: MIC, broth-microdilution (CLSI VET01-A4)
Format: cell-based
Conditions: Pasteurella multocida PM 12080; read-out: MIC PM 12080
Protocol: The Minimum inhibitory concentrations (MIC) of compounds according to the invention for a number of veterinary bacterial pathogens were determined by the broth-microdilution method according to CLSI document VET01-A4. Microdilution trays containing a doubling dilution series of the test compound were used for the tests. […] The lowest concentration of compound at which no visible growth (i.e. no turbidity) detected by the unaided eye was recorded as the MIC. […]
property-name: MIC

Sample records with MIC:
Cc1ccc(CNCc2ccc(C#Cc3ccc(C(=O)NC(C(=O)NO)C(C)C)cc3)cc2)cc1 (stereo not shown)
0.4 µM
COc1ccc(CNCc2ccc(C#Cc3ccc(C(=O)N[C@H](C(=O)NO)[C@@H](C)O)cc3)s2)cc1
0.2 µM
CC(C)(N)C(NC(=O)c1ccc(C#Cc2ccc(N)cc2)cc1)C(=O)NO (stereo not shown)
≤ 0.1 µM
COc1ccc(CNCc2ccc(C#Cc3ccc(C(=O)NC(C(=O)NO)C(C)(C)SC)cc3)cc2)cc1 (stereo not shown)
0.4 µM
CSC(C)(C)[C@H](NC(=O)c1ccc(C#Cc2ccc(CNCc3ccnc(Cl)c3)cc2)cc1)C(=O)NO
0.8 µM

Looking up C#CCNCc1ccc(C#Cc2ccc(C(=O)NC(C(=O)NO)C(C)(C)N)cc2)s1 (racemic) , I see its MIC listed as 0.2 µM

====

system: Pasteurella multocida PM 12080 (IV102277-0093, BRD field isolate); experiment: MIC, broth-microdilution (CLSI VET01-A4); type: cell-based; settings: Pasteurella multocida PM 12080; read-out: MIC PM 12080
Recorded MIC for the following compounds
Hi! Could you send only the number? It should be in µM, unit omitted.

CCC(C)C(NC(=O)c1ccc(C#Cc2ccc(CNCc3ccco3)cc2)cc1)C(=O)NO (stereo not shown)
0.4
C#CCNCc1ccc(C#Cc2ccc(C(=O)NC(C(=O)NO)C(C)(C)N)cc2)cn1 (racemic)
0.4
CCC(C)C(NC(=O)c1ccc(C#Cc2ccc(CNCc3cccs3)cc2)cc1)C(=O)NO (stereo not shown)
0.2

Looking up CC(C)C(NC(=O)c1ccc(C#Cc2ccc(CNCc3ccnc(Cl)c3)cc2)cc1)C(=O)NO (stereo not shown) , I see its MIC listed as 0.2

Looking up CC(C)(N)C(NC(=O)c1ccc(C#Cc2ccc(CNCC(F)(F)F)s2)cc1)C(=O)NO (racemic) , I see its MIC listed as 0.2

Looking up `C[C@@H](O)[C@H](NC(=O)c1ccc(C#Cc2ccc(CNCC#N)s2)cc1)C(=O)NO` , I see its MIC listed as 0.4

Looking up `C[C@@H](O)[C@H](NC(=O)c1ccc(C#Cc2ccc(CNC3CCC3)s2)cc1)C(=O)NO` , I see its MIC listed as 0.4

Looking up COc1ccc(CNCc2ccc(C#Cc3ccc(C(=O)NC(C(=O)NO)C(C)(C)N)cc3)s2)cc1 (stereo not shown) , I see its MIC listed as 0.2

Looking up CCC(C)C(NC(=O)c1ccc(C#Cc2ccc(CNC3CC3)cc2)cc1)C(=O)NO (stereo not shown) , I see its MIC listed as 0.2

Looking up CCC(C)C(NC(=O)c1ccc(C#Cc2ccc(CNCc3cccnc3)cc2)cc1)C(=O)NO (stereo not shown) , I see its MIC listed as 0.4

Looking up C[C@@H](O)[C@H](NC(=O)c1ccc(C#Cc2ccc(CNCC3CCCO3)s2)cc1)C(=O)NO (stereo partly shown) , I see its MIC listed as 0.4
